Molecular target: Serine/threonine-protein kinase Chk1 (Homo sapiens) (UniProt O14757);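 also: reported figure is the mean percent inhibition of CHEK1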
Sequence (whole entry): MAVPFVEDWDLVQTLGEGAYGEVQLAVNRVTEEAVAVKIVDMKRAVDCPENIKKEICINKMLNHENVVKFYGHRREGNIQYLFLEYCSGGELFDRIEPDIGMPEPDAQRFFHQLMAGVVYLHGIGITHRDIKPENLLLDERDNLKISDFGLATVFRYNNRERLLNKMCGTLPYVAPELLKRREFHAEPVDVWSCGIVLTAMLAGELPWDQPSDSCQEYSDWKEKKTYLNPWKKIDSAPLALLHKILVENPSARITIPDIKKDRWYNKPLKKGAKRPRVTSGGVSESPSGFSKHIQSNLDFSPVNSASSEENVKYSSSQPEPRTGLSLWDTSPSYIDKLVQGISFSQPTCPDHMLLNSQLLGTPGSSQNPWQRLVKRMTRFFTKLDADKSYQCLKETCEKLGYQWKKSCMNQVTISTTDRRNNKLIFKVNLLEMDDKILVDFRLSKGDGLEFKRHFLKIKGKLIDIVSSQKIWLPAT
Conditions: at 0.1 µM
Measurement kind: inhibition (%)
Reply with just the number (in %).

Completed entries (count: 5):
## Task Under Serine/threonine-protein kinase Chk1 (Homo sapiens) (UniProt O14757): inhibition value of Cc1cc(O)cc(C)c1/C=C/c1cncc(-c2nn[nH]n2)c1 ?
## Result -7.2

## Task Under Serine/threonine-protein kinase Chk1 (Homo sapiens) (UniProt O14757): inhibition value of CCn1c(-c2nonc2N)nc2cncc(C(=O)N3CC[C@H](N)C3)c21 ?
## Result 4.56

## Task Under Serine/threonine-protein kinase Chk1 (Homo sapiens) (UniProt O14757): inhibition value of CCn1c(-c2nonc2N)nc2cncc(C(=O)N3CCNCC3)c21 ?
## Result 6.55

## Task Under Serine/threonine-protein kinase Chk1 (Homo sapiens) (UniProt O14757): inhibition value of CNC(=O)c1cncc(/C=C/c2c(Cl)cccc2Cl)c1 ?
## Result 0.16

## Task Under Serine/threonine-protein kinase Chk1 (Homo sapiens) (UniProt O14757): inhibition value of O=C1NC(=O)C(c2ccccc2Cl)=C1Nc1cccc(O)c1 ?
## Result -0.11

Further cases:
## Task Under Serine/threonine-protein kinase Chk1 (Homo sapiens) (UniProt O14757): inhibition value of Nc1nc(-c2ccc3c(c2)C(=Cc2cc(Br)c(O)c(Br)c2)C(=O)N3)cs1 ?
## Result 3.04
